Task for the reader: assign each of the following compounds its reported effect on phenylalanine ammonia lyase.
system: phenylalanine ammonia lyase; test: Phenylalanine ammonia lyase activity under gas; format: biochemical; details: optimized enzyme concentration; first value column, head not printed

Some solved entries appear below for comparison.
>>> df
                                 compound                         property_label  obs_value
0  N#N [N2, nitrogen, reference compound]  effect on phenylalanine ammonia lyase        +19
1                                    [Kr]  effect on phenylalanine ammonia lyase         +7
2                                    [Ne]  effect on phenylalanine ammonia lyase         -2

Could I get effect on phenylalanine ammonia lyase for every one of these entries?
1. [Xe]
2. [Ar]

# output
["+18", "+6"]
